Biological target: human muscarinic M4 receptor (Homo sapiens)
Construct: expressed in transfected cells
Sequence (P08173 1-479): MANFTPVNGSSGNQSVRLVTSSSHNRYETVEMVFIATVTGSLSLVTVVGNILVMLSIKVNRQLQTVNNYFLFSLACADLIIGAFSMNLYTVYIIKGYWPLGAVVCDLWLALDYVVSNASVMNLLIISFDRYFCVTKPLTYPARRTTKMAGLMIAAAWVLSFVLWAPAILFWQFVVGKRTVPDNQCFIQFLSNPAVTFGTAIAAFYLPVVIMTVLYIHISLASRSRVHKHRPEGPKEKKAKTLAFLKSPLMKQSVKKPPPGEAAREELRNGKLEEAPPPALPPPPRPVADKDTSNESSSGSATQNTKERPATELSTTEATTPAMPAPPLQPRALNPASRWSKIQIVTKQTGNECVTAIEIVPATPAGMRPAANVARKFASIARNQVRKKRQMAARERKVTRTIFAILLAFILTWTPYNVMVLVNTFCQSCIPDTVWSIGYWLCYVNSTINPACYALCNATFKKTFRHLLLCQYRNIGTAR
Test: Alphascreen Surefire phospho-ERK1/2 functional assay, CHO cells expressing M4
Type: cell-based
Conditions: CHO, read-out: % Emax cf. ACh, M4
measurement.name: Emax (%)

CCOC(=O)N1CC2(CC(N3CCC(N4C(=O)CC[C@@H]4C)CC3)C2)C1    78
CCOC(=O)N1CC2(CC(N3CCC(N4CCCC4c4ccon4)CC3)C2)C1 (racemic) [Example 1-5 (racemic)]    64

(A) CCOC(=O)N1CC2(CC(N3CCC(N4CCC[C@@H]4c4cnco4)CC3)C2)C1
(B) CCOC(=O)N1CC2(CC(N3CCC(N4CCC[C@@H]4c4cn(C)c(=O)o4)CC3)C2)C1
Q: Between these two entries, A and B , state which has the higher Emax. Respond with the label that goes with your answer.
Result: A

====

Molecular target: human muscarinic M4 receptor (Homo sapiens)
Construct: expressed in transfected cells
Experiment: Alphascreen Surefire phospho-ERK1/2 functional assay, CHO cells expressing M4
Format: cell-based
Conditions: CHO, read-out: % Emax cf. ACh, M4
measurement.name: Emax (%)

Examples from the recorded data:
CCOC(=O)N1CC2(CCC(N3CCC(N4C(=O)CC[C@H]4C)CC3)C2)C1 (mixture of isomers) [Example 2-7 (mixture of isomers)]    69
CCOC(=O)N1CC2(CCC(N3CCC(N4C(=O)CC[C@@H]4C)CC3)C2)C1 (mixture of isomers) [Example 2-5 (mixture of isomers)]    36
CCOC(=O)N1CC2(CCC(N3CCC(n4cccn4)CC3)C2)C1 (racemic) [Example 2-3 (racemic)]    94
COC(=O)N1CC2(CCC(N3CCC(c4nccn4C)CC3)C2)C1 (racemic) [Example 2-1 (racemic)]    82
CCOC(=O)N1CC2(CCC(N3CCC([C@@H]4CCCN4C(=O)NC)CC3)C2)C1 (mixture of isomers) [Example 2-4 (mixture of isomers)]    56

(a) CCOC(=O)N1CC2(CCC(N3CCC(N4CC(F)(F)C[C@@H]4CO)CC3)C2)C1 (mixture of isomers) [Example 2-10 (mixture of isomers)]
(b) COC(=O)N1CC2(CCC(N3CCC(N4CCC[C@@H]4c4cnco4)CC3)C2)C1 (single isomer, unassigned) [Example 2-11 (Isomer 2)]
Q: Of a versus b , which is the one with smaller reported Emax? Respond with the label that goes with your answer.
Result: a

(a) COC(=O)N1CC2(CC(N3CCC(c4nccn4C)CC3)C2)C1
(b) CCOC(=O)N1CC2(CC(N3CCC(N4C(=O)CC[C@H]4C)CC3)C2)C1
Q: Between these two entries, a and b , state which has the higher Emax. Respond with the label that goes with your answer.
Result: b

(A) CCOC(=O)N1CC2(CCC(N3CCC(c4nccn4C)CC3)C2)C1 (racemic) [Example 2-2 (racemic)]
(B) CCOC(=O)N1CC2(CCC(N3CCC(N4C(=O)CC[C@@H]4CC)CC3)C2)C1 (mixture of isomers) [Example 2-6 (mixture of isomers)]
Q: Between these two entries, A and B , state which has the higher Emax. Respond with the label that goes with your answer.
Result: A
(A: 102%, B: 59%)
